Tested on: switchgrass (Panicum virgahim L.) (SG)
Experiment: Preemergence herbicide test, soil drench, switchgrass
Type: in vivo
Conditions: Panicum, 336 h, 10 lbs/A (11.2 kg/ha) soil drench, two weeks after treatment, vs untreated checks, read-out: Percent Weed Control SG
recorded metric: pest or weed control at 11208.5 g/ha (%)
Write the value in % as a bare number.

FC(F)(F)C1=NC(C(F)(F)F)(C(F)(F)F)N=C(c2ccccc2)O1 0
FC(F)(F)C1=NC(C(F)(F)F)(C(F)(F)F)N=C(c2ccc(Br)cc2)O1 100
Fc1ccc(C2=NC(C(F)(F)F)(C(F)(F)F)N=C(C(F)(F)C(F)(F)C(F)(F)F)O2)cc1 0
FC(F)(F)c1cc(C2=NC(C(F)(F)F)(C(F)(F)F)N=C(C(F)(F)C(F)(F)F)O2)cc(C(F)(F)F)c1 100
FC(F)(F)C(F)(F)C(F)(F)C1=NC(C(F)(F)F)(C(F)(F)F)N=C(c2cccc(Cl)c2)O1 100
Fc1ccccc1C1=NC(C(F)(F)F)(C(F)(F)F)N=C(C(F)(F)F)O1 30
FC(F)(F)C(F)(F)C1=NC(C(F)(F)F)(C(F)(F)F)N=C(c2ccccc2)O1 0

Kindly review the next compound as well.
What the record says about COc1cccc(C2=NC(C(F)(F)F)(C(F)(F)F)N=C(C(F)(F)C(F)(F)F)O2)c1 : pest or weed control at 11208.5 g/ha is 50

====

# Percent Weed Control TM per record follows
Test system: tall morningglory (Ipomoea purpurea (L.) Roth) (TM)
Test: Postemergence herbicide test, foliar spray, tall morningglory
Type: in vivo
Conditions: 3000 ppm foliar spray to drip point, treated six days after emergence, two weeks after treatment

molecule	recorded metric	recorded value
Fc1ccc(C2=NC(C(F)(F)F)(C(F)(F)F)N=C(C(F)(F)C(F)(F)F)O2)cc1Cl [Compound 20]	Percent Weed Control TM	0%

What the record says about FC(F)(F)C1=NC(C(F)(F)F)(C(F)(F)F)N=C(c2cccc(Cl)c2)O1 [Compound 4] : Percent Weed Control TM is 100%

What the record says about FC(F)(F)C(F)(F)C1=NC(C(F)(F)F)(C(F)(F)F)N=C(c2cccc(Cl)c2)O1 [Compound 13] : Percent Weed Control TM is 100%

What the record says about FC(F)(F)C(F)(F)C1=NC(C(F)(F)F)(C(F)(F)F)N=C(c2ccc(Cl)cc2)O1 [Compound 24] : Percent Weed Control TM is 0%

What the record says about FC(F)(F)C(F)(F)C1=NC(C(F)(F)F)(C(F)(F)F)N=C(c2ccc(Br)cc2)O1 [Compound 25] : Percent Weed Control TM is 20%

====

Tested on: velvetleaf (Abutilon theophrasti Medik.) (VL)
Experiment: Preemergence herbicide test, soil drench, velvetleaf
Assay type: in vivo
Settings: Abutilon theophrasti, 336 h, 10 lbs/A (11.2 kg/ha) soil drench, two weeks after treatment, vs untreated checks, read-out: Percent Weed Control VL
recorded metric: pest or weed control at 11208.5 g/ha
Mention the unit after the number when you answer.

A selection of reference data follows.
molecule	recorded value
FC(F)(F)C(F)(F)C(F)(F)C1=NC(C(F)(F)F)(C(F)(F)F)N=C(c2ccccc2)O1 [reference compound]	0%
Fc1ccc(C2=NC(C(F)(F)F)(C(F)(F)F)N=C(C(F)(F)C(F)(F)F)O2)cc1 [Compound 17]	100%

What the record says about COc1cccc(C2=NC(C(F)(F)F)(C(F)(F)F)N=C(C(F)(F)C(F)(F)F)O2)c1 [Compound 23] : pest or weed control at 11208.5 g/ha is 100%

What the record says about FC(F)(F)C(F)(F)C1=NC(C(F)(F)F)(C(F)(F)F)N=C(c2cc(Cl)cc(Cl)c2)O1 [Compound 21] : pest or weed control at 11208.5 g/ha is 100%

What the record says about FC(F)(F)c1cc(C2=NC(C(F)(F)F)(C(F)(F)F)N=C(C(F)(F)C(F)(F)F)O2)cc(C(F)(F)F)c1 [Compound 18] : pest or weed control at 11208.5 g/ha is 100%
